System: Human immunodeficiency virus 1
procedure text: Cytotoxicity against HIV-1 (HTLV-IIIB) in MT-4 cells
Assay type: functional
stated conditions: Human immunodeficiency virus 1, MT4
measurement label: CC50

So what's the measured CC50 for this one? O=C(CCCCCCCCC(=O)Nc1cc(S(=O)(=O)O)cc2cc(S(=O)(=O)O)cc(O)c12)Nc1cc(S(=O)(=O)O)cc2cc(S(=O)(=O)O)cc(O)c12
> 100 µM

Which measured CC50 value corresponds to O=S(=O)(O)c1cc(S(=O)(=O)O)c2cc(NS(=O)(=O)c3ccc(-c4ccc(S(=O)(=O)Nc5ccc6cc(S(=O)(=O)O)cc(S(=O)(=O)O)c6c5)cc4)cc3)ccc2c1 ?
> 500 µM

Given Nc1cc(S(=O)(=O)O)cc2cc(S(=O)(=O)O)cc(O)c12 , state its recorded CC50.
> 529 µM

Record request: CC50 value, item O=C(CCCCCCCCC(=O)Nc1ccc(S(=O)(=O)O)c2ccccc12)Nc1ccc(S(=O)(=O)O)c2ccccc12
> 500 µM

Would you kindly share the measured CC50 for O=C(O)c1cc(NS(=O)(=O)c2cccc3c(S(=O)(=O)Nc4cc(C(=O)O)c(O)c(S(=O)(=O)O)c4)cccc23)cc(S(=O)(=O)O)c1O ?
> 500 µM

Can you share its CC50? I mean this molecule: O=S(=O)(O)c1cc(S(=O)(=O)O)c2cc(NS(=O)(=O)c3cccc4c(S(=O)(=O)Nc5ccc6cc(S(=O)(=O)O)cc(S(=O)(=O)O)c6c5)cccc34)ccc2c1
> 500 µM

Dear colleague, I am looking for the recorded CC50 of the following molecule: Nc1ccc(S(=O)(=O)O)c2cccc(S(=O)(=O)O)c12
> 500 µM
